Target: purified recombinant full length PKC theta (Panvera, P2996) (Homo sapiens, UniProt Q04759)
Construct: purified recombinant full length PKC theta (Panvera, P2996)
Sequence (Q04759 whole entry): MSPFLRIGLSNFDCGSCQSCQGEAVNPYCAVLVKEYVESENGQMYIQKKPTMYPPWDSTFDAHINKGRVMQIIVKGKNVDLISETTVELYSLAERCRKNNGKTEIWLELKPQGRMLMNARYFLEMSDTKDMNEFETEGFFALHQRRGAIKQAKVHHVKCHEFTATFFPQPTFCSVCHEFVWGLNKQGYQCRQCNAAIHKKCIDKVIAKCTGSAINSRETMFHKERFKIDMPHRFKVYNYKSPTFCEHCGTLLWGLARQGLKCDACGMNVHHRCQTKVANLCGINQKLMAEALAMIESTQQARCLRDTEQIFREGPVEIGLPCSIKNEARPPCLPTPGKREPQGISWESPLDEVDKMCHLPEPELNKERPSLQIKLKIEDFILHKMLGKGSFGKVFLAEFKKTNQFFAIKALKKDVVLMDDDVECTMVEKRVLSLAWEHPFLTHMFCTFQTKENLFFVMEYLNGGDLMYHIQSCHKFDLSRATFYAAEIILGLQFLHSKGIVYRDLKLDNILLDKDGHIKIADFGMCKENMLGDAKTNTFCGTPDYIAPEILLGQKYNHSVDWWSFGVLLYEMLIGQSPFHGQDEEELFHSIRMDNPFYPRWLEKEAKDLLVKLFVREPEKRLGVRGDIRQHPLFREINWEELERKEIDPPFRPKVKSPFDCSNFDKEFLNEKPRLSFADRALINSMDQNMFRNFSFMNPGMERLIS
Assay Remarks: Radioactive kinase assay for inhibition of full length (FL) PKCθ
Assay Context: full length enzyme; radioactive (ATP γ P33) assay; average value
Experimental: This assay is based on the phosphorylation of a biotinylated substrate by a kinase utilizing radiolabeled ATP (ATP γ P33). The substrate was a biotinylated peptide with a sequence of biotin-FARKGSLRQ-C(O)NH2. […] The scintiplate was incubated at room temperature, washed in PBS with 0.1% TritonX 100, and counted in the 1450 Microbeta Trilux (Wallac, Version 2.60). Counts were recorded for each well as corrected counts per minute (CCPM). […]
pIC50: −log10 of the molar value.
Endpoint Name: pIC50

Any idea what pIC50 was measured for COCCOc1ccc(-c2cncc(C#N)c2Nc2cc(OC)c(Cl)cc2Cl)cc1OC [Compound 149] ?
5.15

[a] COc1cc(Nc2c(C#N)cncc2-c2cccc(OCCCl)c2)c(Cl)cc1Cl [Compound 150]
[b] COc1cc(Nc2c(C#N)cncc2-c2cccc(OCCN3CCCC3)c2)c(Cl)cc1Cl [Compound 151]
When their pIC50 values are compared, which is larger, a or b ? Please indicate the selected item by its label.
a

Where do the numbers come from? From patent US20070287738A1.
